Target sequence: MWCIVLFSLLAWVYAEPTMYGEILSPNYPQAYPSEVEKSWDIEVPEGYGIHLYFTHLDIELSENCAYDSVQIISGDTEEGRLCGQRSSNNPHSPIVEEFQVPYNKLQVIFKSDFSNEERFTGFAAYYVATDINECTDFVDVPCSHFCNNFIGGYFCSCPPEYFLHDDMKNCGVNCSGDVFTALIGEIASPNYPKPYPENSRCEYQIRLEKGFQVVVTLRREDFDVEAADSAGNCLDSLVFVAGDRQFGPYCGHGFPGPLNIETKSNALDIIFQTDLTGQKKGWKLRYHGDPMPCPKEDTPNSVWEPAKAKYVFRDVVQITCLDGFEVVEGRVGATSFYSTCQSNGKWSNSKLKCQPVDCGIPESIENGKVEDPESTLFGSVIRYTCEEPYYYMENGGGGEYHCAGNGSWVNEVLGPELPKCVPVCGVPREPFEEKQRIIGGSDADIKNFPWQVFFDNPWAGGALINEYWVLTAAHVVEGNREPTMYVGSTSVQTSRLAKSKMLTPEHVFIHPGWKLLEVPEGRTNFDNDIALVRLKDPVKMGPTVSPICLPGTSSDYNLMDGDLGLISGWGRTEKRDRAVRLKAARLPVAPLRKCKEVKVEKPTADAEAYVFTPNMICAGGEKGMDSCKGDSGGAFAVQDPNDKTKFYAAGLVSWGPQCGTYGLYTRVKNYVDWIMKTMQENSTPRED
Just a reminder that ties go to not fulfilled: only Ki strictly below 900 nM counts as fulfilled.

As a guide, the following entries are already answered.
smiles notation: CSc1sc(C(=N)N)cc1-c1nc(-c2ccc(-c3ccccc3)cc2)cs1
assigned class: not fulfilled

smiles notation: CSc1sc(C(=N)N)cc1-c1nc(-c2cnn(-c3ccccc3)c2OCC2CCC2)cs1
assigned class: fulfilled

smiles notation: CCCc1c(-c2csc(-c3cc(C(=N)N)sc3SC)n2)cnn1C
assigned class: fulfilled

*Q* Determine if CSc1sc(C(=N)N)cc1-c1nc(-c2cccnc2Cl)cs1 shows Ki strictly lower than 900 nM.
*A* not fulfilled

*Q* Thanks! And CSc1sc(C(=N)N)cc1-c1nc(COc2ccccc2)cs1 ?
*A* fulfilled
